Measured On: human α7 nicotinic acetylcholine receptor (HEK cell line stably expressing human RIC-3 and human α7) (Homo sapiens, UniProt P36544)
Construct: host or cells: HEK cell line (PrecisION hnAChR α7/RIC-3)
Sequence (P36544 23-502): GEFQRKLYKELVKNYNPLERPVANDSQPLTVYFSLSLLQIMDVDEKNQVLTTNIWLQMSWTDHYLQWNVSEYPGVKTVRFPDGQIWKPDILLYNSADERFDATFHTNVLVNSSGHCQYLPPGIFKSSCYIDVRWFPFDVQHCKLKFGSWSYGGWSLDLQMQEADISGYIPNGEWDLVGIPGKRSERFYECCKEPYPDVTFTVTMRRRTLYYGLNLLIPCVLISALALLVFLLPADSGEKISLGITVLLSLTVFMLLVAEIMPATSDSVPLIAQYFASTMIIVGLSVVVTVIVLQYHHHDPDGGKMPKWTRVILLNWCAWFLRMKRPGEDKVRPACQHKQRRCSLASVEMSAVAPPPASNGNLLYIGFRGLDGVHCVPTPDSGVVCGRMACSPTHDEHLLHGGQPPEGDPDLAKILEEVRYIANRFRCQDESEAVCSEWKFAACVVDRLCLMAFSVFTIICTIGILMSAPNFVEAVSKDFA
Method Description: Automated patch-clamp electrophysiology functional assay (Assay A), IonFlux HT, whole-cell population patch
Assay type: cell-based
Settings: automated patch-clamp electrophysiology functional assay (Assay A); read-out: α7 nAChR EC50
Threshold check on EC50: strictly below 1 µM is satisfied; on or above 1 µM is not satisfied.

Example entries and their recorded answers appear below.
>  <Compound>
Cc1ccccc1-c1nc([C@@H]2CC23CCN(S(N)(=O)=O)CC3)no1

>  <Category Label>
satisfied

$$$$
>  <Compound>
NS(=O)(=O)N1CCC2(CC1)C[C@H]2c1noc(-c2ccnn2C2CC2)n1

>  <Category Label>
satisfied

$$$$
>  <Compound>
NS(=O)(=O)N1CCC2(CC1)C[C@H]2c1noc(C2CCCCC23CC3)n1 (mixture of isomers)

>  <Category Label>
not satisfied

$$$$
>  <Compound>
CCn1nc(-c2nc([C@@H]3CC34CCN(S(N)(=O)=O)CC4)no2)cc1C

>  <Category Label>
not satisfied

$$$$

Does `NS(=O)(=O)N1CCC2(CC1)C[C@H]2c1nnc(-c2ccccc2OCC(F)(F)F)s1` have EC50 strictly under 1 µM?
satisfied

Same question for `NS(=O)(=O)N1CCC2(CC1)C[C@H]2c1nc(-c2conc2C2CC2)co1` please.
not satisfied

Same question for `NS(=O)(=O)N1CCC2(CC1)C[C@H]2c1noc(-c2ccccc2OC(F)F)n1` please.
satisfied

Same question for `Cc1ccccc1-c1nnc([C@H]2C(F)(F)C23CCN(S(N)(=O)=O)CC3)s1` please.
not satisfied
